Entries and their self-cleavage values follow.
B1: LINE1-full (parent)
chain: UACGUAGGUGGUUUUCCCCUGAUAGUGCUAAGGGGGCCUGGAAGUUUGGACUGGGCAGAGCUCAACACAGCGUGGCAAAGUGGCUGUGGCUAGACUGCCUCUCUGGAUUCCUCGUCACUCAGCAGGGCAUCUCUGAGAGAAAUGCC

Variants of: B1
experiment: self-cleavage, relative activity (ratio to wild type); higher = more cleavage; in vitro, sequencing; the parent is a self-cleaving ribozyme

Below: 8 variants and their reported self-cleavage.
A24C A140G    1.15
A117U A136U    1.67
U12G U29C    1.02
A107G U115G    0
A2G U112C    0.87
C61A U102C    0.05
U9G U108C    1.37
U26G U100C    1.22

Reported self-cleavage of A67C U87A : 0.05
